# STUDY SYSTEM: T1, human WISE (human, UniProt Q6X4U4 24-206)
# T1 construct: Recombinant, made in E. coli or mammalian cells; biotinylated in the ELISAs, amine-coupled to CM5 in Biacore; also called huWise; huWISE
# T1 sequence: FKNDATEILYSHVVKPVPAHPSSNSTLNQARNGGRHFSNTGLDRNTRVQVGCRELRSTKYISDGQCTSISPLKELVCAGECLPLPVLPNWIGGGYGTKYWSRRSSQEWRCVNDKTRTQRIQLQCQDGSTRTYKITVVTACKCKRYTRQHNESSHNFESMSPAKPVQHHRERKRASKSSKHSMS
# MEASUREMENT NOTES: assay not specified (IgG2 from transient transfection)
READOUT: binding result

BINDER	VALUE OBSERVED
Ab-24 (antibody, human IgG2, kappa, V domains shown, Phage-derived human light chain with the humanized Ab-C IgG2 heavy chain) VH: QVQLVQSGAEVKKPGSSVKVSCKASGGTFSSTYISWVRQAPGQGLEWMGWIYAGTGGTRYNRKFTGRVTITADESTSTAYMELSSLRSEDTAVYYCAREGVDGWFTYWGQGTLVTVSS VL: ETTLTQSPALLSLSPGERATLSCRASQTLSFDFFAWYQQKPGQAPSLLISGISTRAAGVPDRFSGSGSGTDFTLTIDRLEPEDFAVYFCQQSSSLPLTFGGGTKVEIRR	binds
Ab-13 (antibody, human IgG2, kappa, V domains shown, Phage-derived human light chain with the humanized Ab-C IgG2 heavy chain) VH: QVQLVQSGAEVKKPGSSVKVSCKASGGTFSSTYISWVRQAPGQGLEWMGWIYAGTGGTRYNRKFTGRVTITADESTSTAYMELSSLRSEDTAVYYCAREGVDGWFTYWGQGTLVTVSS VL: DIQMTQSPSSLSASVGDRVTITCRASQSISEYLNWYQQKPGQAPRLLIYGVSTRATGIAARFSGSGSGTDFTLTISSLQPEDSAVYYCQQDYNVPYTFGQGTKLEIKR	binds
light chain of SEQ ID NO: 106 paired with the heavy chain of SEQ ID NO: 24 (antibody, human IgG2, lambda, V domains shown) VH: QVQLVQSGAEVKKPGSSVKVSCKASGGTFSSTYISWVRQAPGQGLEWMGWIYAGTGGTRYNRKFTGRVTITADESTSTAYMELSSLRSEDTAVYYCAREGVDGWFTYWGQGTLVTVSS VL: NFMLTQPHSVSESPGKTITISCTRSSGSISSNYVQWYQQRPGSSPRIVMSEDDQRPSGVSDRFSGSIDISSNSAFLTISGLKPEDEGDYYCQSYDTDIPYVFGTGTKVTVLG	binds
